# Tested on: HSV-1
# experimental_details: In-vitro activity, HSV-1 infected Vero
# Assay type: cell-based
# applied_conditions: Human alphaherpesvirus 1; Vero cells
pIC50: −log10 of the molar value.
In this section, each of the compounds is paired with its reported pIC50.

{"columns": ["compound", "pIC50"],
 "data": [
  ["[2H]c1c([2H])c([2H])c(-c2ccc(CC(=O)N(C)c3nc(C)c(S(N)(=O)=O)s3)cc2)c([2H])c1[2H]", "7.30 to 9.00"],
  ["[2H]C([2H])([2H])c1nc(N(C)C(=O)Cc2ccc(-c3cc(F)ccc3F)cc2)sc1S(C)(=N)=O (racemic)", "6.90 to 7.60"],
  ["Cc1nc(N(C)C(=O)Cc2ccc(-c3cc(F)ccc3F)cc2)sc1S(C)(=N)=O (racemic) [Comparative Example C7, reference compound]", "7.00 to 7.60"]
]}

###

# experimental_details: Pharmacokinetics in mouse
# Assay type: in vivo
# applied_conditions: plasma; male C57BI/6N mouse, iv 2 mg/kg, cassette
In this section, each of the molecules is paired with its reported clearance.
measured_parameter: clearance (mL/min/kg)

{"columns": ["molecule", "observed_result"],
 "data": [
  ["[2H]C([2H])([2H])c1nc(N(C)C(=O)Cc2ccc(-c3cc(F)ccc3F)cc2)sc1[S@@](C)(=N)=O (single isomer, unassigned) [Example 4/2]", 3.13],
  ["Cc1nc(N(C)C(=O)Cc2ccc(-c3cc(F)ccc3F)cc2)sc1[S@@](C)(=N)=O [Comparative Example C4/2, reference compound]", 5.22]
]}

###

In this section, each of the molecules is paired with its reported IC50.
# System: HSV-1
# experimental_details: In-vitro activity, HSV-1 infected Vero
# Format: cell-based
# applied_conditions: Human alphaherpesvirus 1; Vero cells

{"columns": ["molecule", "IC50"],
 "data": [
  ["[2H]C([2H])([2H])c1nc(N(C)C(=O)Cc2ccc(-c3cc(F)ccc3F)cc2)sc1[S@@](C)(=N)=O (single isomer, unassigned)", "5 to 75 nM"],
  ["[2H]C([2H])([2H])c1nc(N(C)C(=O)Cc2ccc(-c3cc(F)ccc3F)cc2F)sc1S(N)(=O)=O", "2 to 60 nM"],
  ["[2H]C([2H])([2H])Oc1ccccc1-c1ccc(CC(=O)N(C)c2nc(C)c(S(N)(=O)=O)s2)cc1", "10 to 100 nM"],
  ["[2H]C([2H])([2H])Oc1cccc(-c2ccc(CC(=O)N(C)c3nc(C)c(S(N)(=O)=O)s3)cc2)c1", "10 to 100 nM"],
  ["[2H]C([2H])([2H])c1nc(N(C)C(=O)Cc2ccc(-c3cc(F)ccc3F)cc2)sc1S(N)(=O)=O", "2 to 60 nM"],
  ["[2H]C([2H])([2H])c1nc(N(C)C(=O)Cc2ccc(-c3cccc(F)c3)cc2F)sc1S(N)(=O)=O", "2 to 60 nM"],
  ["[2H]C([2H])([2H])c1nc(N(C)C(=O)Cc2ccc(-c3cc(F)ccc3F)cc2)sc1[S@](C)(=N)=O (single isomer, unassigned)", "50 to 150 nM"]
]}

###

# experimental_details: Brain exposure and brain-to-plasma ratio in mouse
# Type: in vivo
# applied_conditions: brain; C57BI/6N mouse, oral cassette 10 mg/kg, 4 h; read-out: mean brain conc. with SD

{"columns": ["molecule", "unit", "concentration at 4 h"],
 "data": [
  ["[2H]C([2H])([2H])c1nc(N(C)C(=O)Cc2ccc(-c3cc(F)ccc3F)cc2)sc1S(N)(=O)=O", "ng/mL", 3220],
  ["[2H]C([2H])([2H])c1nc(N(C)C(=O)Cc2ccc(-c3cc(F)ccc3F)cc2)sc1[S@@](C)(=N)=O (single isomer, unassigned)", "ng/mL", 8610],
  ["Cc1nc(N(C)C(=O)Cc2ccc(-c3cc(F)ccc3F)cc2)sc1[S@@](C)(=N)=O [Comparative Example C4/2, reference compound]", "ng/mL", 5610]
]}

###

# experimental_details: Pharmacokinetics in mouse
# Format: in vivo
# applied_conditions: plasma; male C57BI/6N mouse, po 10 mg/kg vs iv 2 mg/kg
# Description: Plasma from the retrobulbar venous plexus was analyzed by LC-MS. The obtained data obtained is as follows (NC=not calculable): […]

{"columns": ["molecule", "bioavailability (%)"],
 "data": [
  ["Cc1nc(N(C)C(=O)Cc2ccc(-c3cc(F)ccc3F)cc2)sc1[S@@](C)(=N)=O [Comparative Example C4/2, reference compound]", 167],
  ["[2H]C([2H])([2H])c1nc(N(C)C(=O)Cc2ccc(-c3cc(F)ccc3F)cc2)sc1[S@@](C)(=N)=O (single isomer, unassigned) [Example 4/2]", 201]
]}

###

# experimental_details: Pharmacokinetics in mouse
# Assay type: in vivo
# applied_conditions: plasma; male C57BI/6N mouse, po 10 mg/kg, cassette

{"columns": ["compound", "unit", "Cmax"],
 "data": [
  ["[2H]C([2H])([2H])c1nc(N(C)C(=O)Cc2ccc(-c3cc(F)ccc3F)cc2)sc1[S@@](C)(=N)=O (single isomer, unassigned) [Example 4/2]", "ng/mL", 4610],
  ["Cc1nc(N(C)C(=O)Cc2ccc(-c3cc(F)ccc3F)cc2)sc1[S@@](C)(=N)=O [Comparative Example C4/2, reference compound]", "ng/mL", 2960]
]}

###

# experimental_details: Pharmacokinetics in mouse
# Type: in vivo
# applied_conditions: plasma; male C57BI/6N mouse, iv 2 mg/kg, cassette
In this section, each of the compounds is paired with its reported C0.
measured_parameter: C0

{"columns": ["compound", "measured_parameter", "observed_result"],
 "data": [
  ["[2H]C([2H])([2H])c1nc(N(C)C(=O)Cc2ccc(-c3cc(F)ccc3F)cc2)sc1[S@@](C)(=N)=O (single isomer, unassigned)", "C0", "0.0162 µg/mL"],
  ["Cc1nc(N(C)C(=O)Cc2ccc(-c3cc(F)ccc3F)cc2)sc1[S@@](C)(=N)=O [Comparative Example C4/2, reference compound]", "C0", "0.0104 µg/mL"]
]}

###

# experimental_details: Pharmacokinetics in mouse
# Assay type: in vivo
# applied_conditions: plasma; male C57BI/6N mouse, iv 2 mg/kg, cassette; read-out: Cz

{"columns": ["compound", "concentration at 24 h [ng/mL]"],
 "data": [
  ["[2H]C([2H])([2H])c1nc(N(C)C(=O)Cc2ccc(-c3cc(F)ccc3F)cc2)sc1[S@@](C)(=N)=O (single isomer, unassigned)", 162],
  ["Cc1nc(N(C)C(=O)Cc2ccc(-c3cc(F)ccc3F)cc2)sc1[S@@](C)(=N)=O [Comparative Example C4/2, reference compound]", 71.5]
]}

###

# experimental_details: Pharmacokinetics in mouse
# Format: in vivo
# applied_conditions: plasma; male C57BI/6N mouse, iv 2 mg/kg, cassette; read-out: Vz
In this section, each of the molecules is paired with its reported Vd.

{"columns": ["molecule", "Vd"],
 "data": [
  ["Cc1nc(N(C)C(=O)Cc2ccc(-c3cc(F)ccc3F)cc2)sc1[S@@](C)(=N)=O [Comparative Example C4/2, reference compound]", "3.47 L/kg"],
  ["[2H]C([2H])([2H])c1nc(N(C)C(=O)Cc2ccc(-c3cc(F)ccc3F)cc2)sc1[S@@](C)(=N)=O (single isomer, unassigned)", "3.07 L/kg"]
]}

###

In this section, each of the compounds is paired with its reported Tmax.
# experimental_details: Pharmacokinetics in mouse
# Assay type: in vivo
# applied_conditions: plasma; male C57BI/6N mouse, po 10 mg/kg, cassette
measured_parameter: Tmax (h)

{"columns": ["compound", "measured_parameter", "observed_result"],
 "data": [
  ["Cc1nc(N(C)C(=O)Cc2ccc(-c3cc(F)ccc3F)cc2)sc1[S@@](C)(=N)=O [Comparative Example C4/2, reference compound]", "Tmax", 4],
  ["[2H]C([2H])([2H])c1nc(N(C)C(=O)Cc2ccc(-c3cc(F)ccc3F)cc2)sc1[S@@](C)(=N)=O (single isomer, unassigned)", "Tmax", 4]
]}

###

# experimental_details: Brain exposure and brain-to-plasma ratio in mouse
# Assay type: in vivo
# applied_conditions: plasma; C57BI/6N mouse, oral cassette 10 mg/kg, 4 h; read-out: mean plasma conc. with SD

{"columns": ["molecule", "concentration at 4 h, ng/mL"],
 "data": [
  ["[2H]C([2H])([2H])c1nc(N(C)C(=O)Cc2ccc(-c3cc(F)ccc3F)cc2)sc1[S@@](C)(=N)=O (single isomer, unassigned)", 5470],
  ["Cc1nc(N(C)C(=O)Cc2ccc(-c3cc(F)ccc3F)cc2)sc1[S@@](C)(=N)=O [Comparative Example C4/2, reference compound]", 3580],
  ["[2H]C([2H])([2H])c1nc(N(C)C(=O)Cc2ccc(-c3cc(F)ccc3F)cc2)sc1S(N)(=O)=O", 4130]
]}
